All values here come from PubChem BioAssay (NCI).

tested on: EKVX NSCLC; experiment: NCI tumour cell line growth inhibition, 48 h
parameter.measured: TGI

Worked examples, 8 compounds total:
compound	TGI
CC(=O)CC1(C)OC(N)=C(C#N)C1(C#N)C#N (stereo unspecified)	> 100 µM
Nc1ccn([C@@H]2C(F)=C(CO)[C@@H](O)[C@H]2O)c(=O)n1	> 100 µM
CC(C)C1CC(CO)(CNc2cc(Cl)nc(N)n2)C1 (stereo unspecified)	> 100 µM
CN(C)C/C=C/C(=O)Nc1ccc(C(=O)N2CCC[C@@H](Nc3ncc(Cl)c(-c4c[nH]c5ccccc45)n3)C2)cc1	7.5 µM
O=C(CCN1CCCC1)Nc1ccc2c(Nc3ccccc3)c3ccccc3nc2c1	4.23 µM
NC(=O)c1c[se]c(C2OC(COP(=O)(O)CP(=O)(O)OCC3OC(n4cnc5c(N)ncnc54)C(O)C3O)C(O)C2O)n1 (stereo unspecified)	> 100 µM
O=C1C=C(N2CCN(c3ccccn3)CC2)C(=O)c2c(O)ccc(O)c21	> 65.7 µM
O=C(/C=C/c1ccco1)c1cccc(C(=O)/C=C/c2ccco2)n1	> 100 µM

INPUT: Please report the measured TGI for COc1cc([C@H]2c3[nH]c4ccccc4c3C[C@H]3COC(=O)N32)cc(OC)c1O
OUTPUT: 22.7 µM

INPUT: Let me know recorded TGI for CCCn1cnc2c(SCc3ccccc3)nc(N)nc21 , thanks.
OUTPUT: > 100 µM

INPUT: Fill in TGI for record O=C(Nc1ccc(Cl)cc1)Nc1ccccc1CNc1nc(Nc2ccc(OCCN3CCCC3)cc2)ncc1Cl
OUTPUT: 6.63 µM

INPUT: Supply TGI value. Item: CC[P+]1(CC)CCCC1
OUTPUT: > 100 µM

---

tested on: HOP-62 NSCLC; assay: NCI tumour cell line growth inhibition, 48 h
Examples of compounds with documented GI50 follow.

INPUT: Return the recorded GI50 value; entry: COc1ccc(NC(=O)c2sc3nc4c(cc3c2N)CCCC4)cc1
OUTPUT: 0.752 µM

INPUT: Please report GI50 for the following compound: Cn1cc(CO)c2ccccc21
OUTPUT: 73.8 µM

INPUT: // fetch GI50 given entry COc1ccc2c(c1)nc1n2C(c2ccc(F)cc2)SC1 (configuration not stated)
OUTPUT: 79.7 µM

---

system: CCRF-CEM leukemia; test: NCI tumour cell line growth inhibition, 48 h
parameter.measured: GI50

Consider the reported GI50 for these compounds:
compound	reported.result
COc1ccc(NC(=O)c2sc3nc4c(cc3c2N)CCCC4)cc1	322 nM
CC(=O)[CH-]C(=O)c1ccccc1.CC(=O)[CH-]C(=O)c1ccccc1.[CH2-]CCC.[CH2-]CCC.[Sn+4]	261 nM
O=c1oc2ccc(F)cc2c(=O)n1-c1ccc(Br)cc1F	2720 nM
CN(C)CCCC1(c2ccc(F)cc2)OCc2cc(-c3cncc4ccccc34)ccc21 (stereo unspecified)	3450 nM
CC12OC(C(=O)C13CCC3)C1C(=O)c3ccccc3C(=O)C12 (stereo unspecified)	36900 nM

INPUT: Retrieve GI50 measured for CC(C)(CO)N=Cc1ccccc1[O-].CC(C)(CO)N=Cc1ccccc1[O-].[Co+2] and print it.
OUTPUT: 5860 nM

INPUT: Supply measured GI50 of O=C(Nc1ccccc1O)c1ccc(CNC(=O)c2ccsc2Nc2ccnc(C(F)(F)F)c2)cc1 in your reply.
OUTPUT: 320 nM

INPUT: Please list GI50 recorded for the compound CN(C)C(=O)SC1=C(c2c(Cl)cccc2Cl)C(=O)c2ccccc21
OUTPUT: 2670 nM

INPUT: Give the value of GI50 reported for the following: COc1ccc(C(=O)C[C@]2(O)C(=O)Nc3c(Cl)ccc(Cl)c32)cc1
OUTPUT: 563 nM

INPUT: For CC1(C)C2CCC13C(=O)C1OC3(C2)C2C(=O)c3c(O)cccc3C(=O)C12 (stereo unspecified) , write its GI50.
OUTPUT: 212 nM

INPUT: Consider the compound CCc1cccc(CC)c1/C=C/c1cncc(C(=O)NC)c1 and give its recorded GI50.
OUTPUT: 765 nM
